Reported growth inhibition values follow for various molecules
Assay Summary: NCI Yeast Anticancer Drug Screen. Data for the mec2-1 strain (AID 157)
Condition Label: S. cerevisiae mec2-1 strain, at 50.0 µM, hits give high values
The panel holds about 79,000 compounds, 15% with a hit somewhere; the sample as a whole holds those more often.
Metric Name: growth inhibition (%)

* Cc1cccc2c(CC(=O)O)cccc12 | 77.7
* NCc1ccc(O)c(O)c1O | 14.4
* Cc1ccc(Nc2nc3c(s2)C(=O)c2ccccc2C3=O)cc1 | 98.8
* COc1nc(N)c(N=O)c(OCc2ccccc2)n1 | 92.6
* CCCCCCCCCCCCCC[N+]1(CC)CCCCC1 | 91.3
* O/N=C(/Cc1ccccc1)c1ccc2c(c1)OCO2 | 4.9
* CC1/C(=N\O)CC(c2ccccc2)N(C)C1c1ccccc1 (centres undefined) | 98.2
* O[C@H](CNCCS)[C@@H](O)CNCCS | 54
* CC(=O)Oc1c(C2CCCCC2)cc([N+](=O)[O-])cc1[N+](=O)[O-] | 99.7
